biological target: full-length human RORγt (Homo sapiens (Human)); assay: RORγt (full-length human) reporter assay, Conditions B or C; assay type: cell-based; settings: at 3 μM compound concentration; read-out: RORγt (FL) Reporter Assay B or C, % inhibition
The following molecules are shown together with reported inhibition at 3 µM values.

# Structure Notation, Unit Descriptor, inhibition at 3 µM
records = [
    ("C[C@H]1CCCN1C(=O)c1nc(C(=O)NCC(C)(C)O)sc1-c1cnc(N[C@H](C)C(C)(C)C)cc1C(F)F", "%", 99),
    ("C[C@H](NC(=O)c1nc(C(=O)N2CC(F)(F)C[C@@H]2C)c(-c2cnc(NC3(C)CCC3)cc2C(F)F)s1)C(C)(C)O", "%", 90),
    ("C[C@H]1CCCN1C(=O)c1nc(C(=O)NCC(C)(C)N)sc1-c1cnc(NC(C)(C)C)cc1C(F)(F)F", "%", 98),
    ("C[C@H](Nc1cc(C(F)F)c(-c2sc(C(=O)N[C@H]3CC[C@H](O)C3)nc2C(=O)N2CC(F)(F)C[C@@H]2C)cn1)C(F)(F)F", "%", 97),
]

* * *

molecular target: full-length human RORγt (Homo sapiens (Human), UniProt P51449); assay: RORγt (full-length human) reporter assay, Conditions B or C; type: cell-based; conditions: read-out: RORγt (FL) Reporter Assay B or C, IC50
Sequence (P51449 other isoform, or with tags, fused parts or gaps): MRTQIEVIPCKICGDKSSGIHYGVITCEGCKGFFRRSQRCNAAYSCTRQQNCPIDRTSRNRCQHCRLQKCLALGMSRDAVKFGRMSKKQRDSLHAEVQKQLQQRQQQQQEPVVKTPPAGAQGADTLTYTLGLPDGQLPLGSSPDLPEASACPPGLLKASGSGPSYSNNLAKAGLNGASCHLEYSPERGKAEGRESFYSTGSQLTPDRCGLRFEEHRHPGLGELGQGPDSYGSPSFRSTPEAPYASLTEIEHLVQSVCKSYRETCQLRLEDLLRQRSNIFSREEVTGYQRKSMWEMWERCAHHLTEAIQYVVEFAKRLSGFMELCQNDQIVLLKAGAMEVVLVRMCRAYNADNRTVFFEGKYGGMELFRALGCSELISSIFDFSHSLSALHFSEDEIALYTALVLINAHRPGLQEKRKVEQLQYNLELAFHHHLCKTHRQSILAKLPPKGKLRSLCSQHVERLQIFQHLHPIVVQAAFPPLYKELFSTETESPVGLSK
Rule: measured IC50 below 100 nM gets Satisfied; anything equal to or greater than 100 nM gets Not satisfied.

# Compound, Assigned Label
records = [
    ("C[C@H]1CC(F)(F)CN1C(=O)c1nc(C(=O)N[C@H](C)C(C)(C)O)sc1-c1cnc(NC2(C)CCC2)cc1C(F)F [Example 325]", "Not satisfied"),
    ("O=C(N[C@H]1CCC[C@@H]1O)c1nc(C(=O)N2C3CCC2CC3)c(-c2cnc(N[C@@H](C3CC3)C(F)(F)F)cc2C(F)F)s1 [Example 451]", "Not satisfied"),
    ("C[C@H]1CCCN1C(=O)c1nc(C(=O)N[C@H]2CC[C@@H](O)C2)sc1-c1cnc(NC(C)(C)C)cc1C(F)(F)F [Example 367]", "Satisfied"),
    ("C[C@H]1CCCN1C(=O)c1nc(C(=O)NC2CN(C)C2)sc1-c1cnc(NC(C)(C)C)cc1C(F)(F)F [Example 356]", "Satisfied"),
    ("C[C@H](Nc1cc(C(F)F)c(-c2sc(C(=O)N[C@@H]3CCC[C@H]3O)nc2C(=O)N2CCC[C@@H]2C)cn1)C(F)(F)F [Example 283]", "Satisfied"),
    ("C[C@H]1CCCN1C(=O)c1nc(C(=O)N[C@H]2C[C@H](O)C2)sc1-c1cnc(NC2(C)CCC2)cc1C(F)F [Example 323]", "Not satisfied"),
    ("C[C@H]1CCCN1C(=O)c1nc(C(=O)NCC(C)(C)O)sc1-c1cnc(NCC2CCC2)cc1C(F)F [Example 301]", "Satisfied"),
]

* * *

target: full-length human RORγt (Homo sapiens (Human)); experiment: RORγt (full-length human) reporter assay, Conditions B or C; format: cell-based; settings: Conditions B or C; read-out: RORγt (FL) Reporter Assay B or C, IC50
pIC50: −log10 of the molar value.
Attribute Measured: pIC50

# Structure Notation, Target Desc, Observed Result
rows = [
    ("C[C@H](CO)NC(=O)c1nc(C(=O)N2C3CCC2CC3)c(-c2cnc(N[C@@H](C)C(F)(F)F)cc2C(F)F)s1", "full-length human RORγt (Homo sapiens (Human))", 6.85),
    ("C[C@H]1CCCN1C(=O)c1nc(C(=O)NCC2(O)CCC2)sc1-c1cnc(NC(C)(C)C)cc1C(F)F", "full-length human RORγt (Homo sapiens (Human))", 7.55),
    ("C[C@H](Nc1cc(C(F)F)c(-c2sc(C(=O)NCC(C)(C)O)nc2C(=O)N2CCCC[C@@H]2C)cn1)C1CC1", "full-length human RORγt (Homo sapiens (Human))", 7.85),
    ("C[C@H]1CCCN1C(=O)c1nc(C(=O)NCC(C)(C)O)sc1-c1cnc(NC2CCCCC2)c(C#N)c1", "full-length human RORγt (Homo sapiens (Human))", 6.08),
    ("CC[C@H](Nc1cc(C(F)F)c(-c2sc(C(=O)N[C@H]3CCC[C@@H]3O)nc2C(=O)N2CCC[C@@H]2C)cn1)C(F)(F)F", "full-length human RORγt (Homo sapiens (Human))", 7.38),
    ("C[C@H](NC(=O)c1nc(C(=O)N2C3CCC2CC3)c(-c2cnc(NC3(C)CCC3)cc2C(F)F)s1)C(C)(C)O", "full-length human RORγt (Homo sapiens (Human))", 7.01),
    ("C[C@H](Nc1cc(C(F)F)c(-c2sc(C(=O)NCC(C)(C)O)nc2C(=O)N2CCC[C@@H]2C)cn1)C1CC1", "full-length human RORγt (Homo sapiens (Human))", 7.66),
]

Sourced from patent US10975068B2
